# Tested on: OV90
# experimental-details: Primary qHTS to identify gynecologic anti-cancer compounds using libraries of approved drugs and bioactive compounds (AID 1345084); further: nearly all actives have a fitted effect of over 55% in size
# condition-notes: Gynecologic cancer cell panel viability, ATPlite luminescence, 48 h; series mostly up to 57.5 µM
Inconclusive results are not listed. Activity calls are given as the source filed them. The call rests on the fitted dose curve; in most records, active means well fitted cell-killing curve with a large enough effect; inconclusive means small, poorly fitted or top-dose-only effect, or effect the other way; inactive means flat fitted curve, though single readings scatter.
outcome-measure: activity change, negative = cytotoxicity

INSERT INTO measurements (compound, result) VALUES
  ('O=C1NC(Cc2c[nH]c3ccccc23)C(=O)NC1Cc1cnc[nH]1 (stereo not drawn)', 'inactive'),
  ('O=C(O[C@H]1[C@@H]2C[C@@H]3OC[C@](O)([C@@H]1Cl)[C@H]2C(O[C@@H]1O[C@H](CO)[C@@H](O)[C@H](O)[C@H]1O)O3)c1ccc(O)c(O)c1 (stereo partly drawn)', 'inactive'),
  ('C[C@@H]1O[C@@H](O[C@H]2[C@H](O)[C@@H](O)[C@H](OC3CCC4(C)C5CCC(C)(C(CO)OC6OC(CO)C(O)C(O)C6O)CC5=CCC4C3(C)C)O[C@@H]2CO)[C@H](O)[C@H](O)[C@H]1O (stereo partly drawn)', 'inactive');
